MEASUREMENT_PROTOCOL: Solubility of the compound at pH 7
Assay type: physicochemical
MEASUREMENT_CONDITIONS: buffer
QUANTITY: solubility (µM)

- COMPOUND: "CN1C(=O)CCC1c1cc2[nH]c(-c3ccc(C(F)(F)F)cn3)cc2cc1Oc1ccc(C(=O)O)cc1 (configuration not stated)"
  solubility [µM]: 113
- COMPOUND: "CN1C(=O)CCC1c1cc2[nH]c(-c3ccccn3)cc2cc1Oc1ccc(S(C)(=O)=O)nc1 (single isomer, unassigned; ent-1)"
  solubility [µM]: 142

----------
MEASUREMENT_PROTOCOL: Stability of compound in rat liver microsomes assessed as compound remaining at 1 uM measured after 30 mins
Type: ADME, microsome
MEASUREMENT_CONDITIONS: read-out: Stability
QUANTITY: remaining at 0.5 h, 1 µM (%)
Numeric only. Scale: %

**Query** Query (compound): CN1C(=O)CCC1c1cc2[nH]c(-c3ccccn3)cc2cc1Oc1ccc(S(C)(=O)=O)nc1 (single isomer, unassigned; ent-1) ; field requested: remaining at 0.5 h, 1 µM
**Result** 79

----------
MEASUREMENT_PROTOCOL: Total drug level in HFD-fed C57BL/6 mouse plasma at 0.01 mg/kg, po measured at 4 hrs post dose
Assay type: ADME, organism-based
QUANTITY: concentration at 4 h (nM)
Numeric only. Scale: nM

**Query** Query (compound): CN1C(=O)CCC1c1cc2[nH]c(-c3ccccn3)cc2cc1Oc1ccc(S(C)(=O)=O)nc1 (single isomer, unassigned; ent-1) ; field requested: concentration at 4 h
**Result** 3.8

----------
ASSAYED_TARGET: Hexokinase-4 (Rattus norvegicus, UniProt P17712)
Sequence (P17712 whole entry): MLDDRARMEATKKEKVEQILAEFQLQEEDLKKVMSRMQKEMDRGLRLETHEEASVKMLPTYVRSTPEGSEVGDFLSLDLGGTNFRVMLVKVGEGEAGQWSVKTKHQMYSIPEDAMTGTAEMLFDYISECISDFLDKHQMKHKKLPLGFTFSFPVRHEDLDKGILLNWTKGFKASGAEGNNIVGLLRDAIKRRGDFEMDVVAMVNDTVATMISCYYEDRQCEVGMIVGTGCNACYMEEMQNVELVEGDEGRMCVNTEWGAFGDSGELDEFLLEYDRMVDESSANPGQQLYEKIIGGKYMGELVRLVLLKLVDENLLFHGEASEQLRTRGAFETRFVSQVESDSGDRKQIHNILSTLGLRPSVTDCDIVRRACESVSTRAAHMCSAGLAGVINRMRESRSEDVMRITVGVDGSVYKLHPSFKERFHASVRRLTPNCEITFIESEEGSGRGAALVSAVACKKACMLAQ
MEASUREMENT_PROTOCOL: Activation of glucokinase in primary rat hepatocytes assessed as increase in D-2-deoxyglucose-6-phosphate level in presence of D-2-deoxyglucose by HILIC LC-MS method
Format: cell-based
pEC50: −log10 of the molar value.
QUANTITY: pEC50

- MOLECULE: "CN1C(=O)CCC1c1cc2[nH]c(-c3ccccn3)cc2cc1Oc1ccc(S(C)(=O)=O)nc1 (single isomer, unassigned; ent-1)"
  ASSAYED_TARGET: "Hexokinase-4 (Rattus norvegicus, UniProt P17712)"
  MEASURED_NUMBER: 8.12

(P) COC(=O)c1ccc(-c2cc3cc(Oc4ccc(S(C)(=O)=O)nc4)c(C4CCC(=O)N4C)cc3[nH]2)nc1 (racemic)
(Q) CN1C(=O)CCC1c1cc2[nH]c(-c3cnccn3)cc2cc1Oc1ccc(S(C)(=O)=O)nc1 (stereo in doubt; 3-en)
(R) CN1C(=O)CCC1c1cc2[nH]c(-c3ccc(C(C)(C)O)cn3)cc2cc1Oc1ccc(S(C)(=O)=O)nc1 (stereo in doubt; 4-en)
**Query** Could you please sort these 3 entries by pEC50 from high to low? Rank them, then answer with their labels in that order.
**Result** P, R, Q
(P: 7.70, R: 7.47, Q: 5.82)

(1) CN1C(=O)CCC1c1cc2[nH]c(-c3cnccn3)cc2cc1Oc1ccc(S(C)(=O)=O)nc1 (stereo in doubt; 3)
(2) CN1C(=O)CCC1c1cc2[nH]c(-c3ccc(C(F)(F)F)cn3)cc2cc1Oc1ccc(S(C)(=O)=O)nc1 (stereo in doubt; 5)
**Query** # return whichever of 1 and 2 has the smaller pEC50 Indicate which entry you chose by stating its label.
**Result** 1

----------
ASSAYED_TARGET: Hexokinase-4 (Homo sapiens)
MEASUREMENT_PROTOCOL: Activation of recombinant human glucokinase assessed as conversion of D-glucose to D-glucose-6-phosphate in presence of 10 mM glucose by G6PDH coupled spectrophotometric assay relative to control
QUANTITY: %max (%)

- COMPOUND: "CN1C(=O)CCC1c1cc2[nH]c(-c3ccc(C(F)(F)F)cn3)cc2cc1Oc1ccc(S(C)(=O)=O)nc1 (single isomer, unassigned; ent-2)"
  ASSAYED_TARGET: "Hexokinase-4 (Homo sapiens)"
  MEASURED_NUMBER: 141
- COMPOUND: "CN1C(=O)CCC1c1cc2[nH]c(-c3ccc(C(F)(F)F)cn3)cc2cc1Oc1ccc(S(C)(=O)=O)nc1 (stereo in doubt; 5)"
  ASSAYED_TARGET: "Hexokinase-4 (Homo sapiens)"
  MEASURED_NUMBER: 174
- COMPOUND: "CN1C(=O)CCC1c1cc2[nH]c(-c3ccc(C(C)(C)O)cn3)cc2cc1Oc1ccc(S(C)(=O)=O)nc1 (stereo in doubt; 4-en)"
  ASSAYED_TARGET: "Hexokinase-4 (Homo sapiens)"
  MEASURED_NUMBER: 132
- COMPOUND: "CN1C(=O)CCC1c1cc2[nH]c(-c3ccc(C(F)(F)F)cn3)cc2cc1Oc1ccc(C(=O)O)cc1 (centres undefined)"
  ASSAYED_TARGET: "Hexokinase-4 (Homo sapiens)"
  MEASURED_NUMBER: 179

----------
MEASUREMENT_PROTOCOL: Unbound fraction in human plasma
Format: ADME, cell-free
QUANTITY: fraction unbound
Write the number on its own, no unit after it.

**Query** Query (compound): CN1C(=O)CCC1c1cc2[nH]c(-c3ccccn3)cc2cc1Oc1ccc(S(C)(=O)=O)nc1 (single isomer, unassigned; ent-1) ; field requested: fraction unbound
**Result** 0.087

----------
MEASUREMENT_PROTOCOL: Total drug level in HFD-fed C57BL/6 mouse plasma at 0.03 mg/kg, po measured at 4 hrs post dose
Type: ADME, organism-based
QUANTITY: concentration at 4 h (nM)
Numeric only. Scale: nM

**Query** Query (compound): CN1C(=O)CCC1c1cc2[nH]c(-c3ccccn3)cc2cc1Oc1ccc(S(C)(=O)=O)nc1 (single isomer, unassigned; ent-1) ; field requested: concentration at 4 h
**Result** 12

----------
ASSAYED_TARGET: Hexokinase-4 (Homo sapiens)
MEASUREMENT_PROTOCOL: Activation of recombinant human glucokinase assessed as conversion of D-glucose to D-glucose-6-phosphate in presence of 10 mM glucose by G6PDH coupled spectrophotometric assay relative to control
QUANTITY: %max (%)

- COMPOUND: "CN1C(=O)CCC1c1cc2[nH]c(-c3ccc(C(C)(C)O)cn3)cc2cc1Oc1ccc(S(C)(=O)=O)nc1 (stereo in doubt; 4)"
  %max, %: 173
- COMPOUND: "Cc1cnc(-c2cc3cc(Oc4ccc(S(C)(=O)=O)nc4)c(C4CCC(=O)N4C)cc3[nH]2)s1 (stereo in doubt; 2-en)"
  %max, %: 132
- COMPOUND: "CN1C(=O)CCC1c1cc2[nH]c(-c3cnccn3)cc2cc1Oc1ccc(S(C)(=O)=O)nc1 (stereo in doubt; 3-en)"
  %max, %: 155

----------
MEASUREMENT_PROTOCOL: Apparent permeability in pig LLC-PK1 cells
Format: ADME, cell-based, Sus scrofa
QUANTITY: Papp (×10⁻⁶ cm/s)
Numeric only. Scale: ×10⁻⁶ cm/s

**Query** Query (compound): CN1C(=O)CCC1c1cc2[nH]c(-c3ccccn3)cc2cc1Oc1ccc(S(C)(=O)=O)nc1 (single isomer, unassigned; ent-1) ; field requested: Papp
**Result** 40

----------
MEASUREMENT_PROTOCOL: Apparent permeability in MDCK cells
Type: ADME, cell-based, Canis lupus familiaris
MEASUREMENT_CONDITIONS: dog
QUANTITY: Papp (×10⁻⁶ cm/s)
Numeric only. Scale: ×10⁻⁶ cm/s

**Query** Query (compound): CN1C(=O)CCC1c1cc2[nH]c(-c3ccccn3)cc2cc1Oc1ccc(S(C)(=O)=O)nc1 (single isomer, unassigned; ent-1) ; field requested: Papp
**Result** 40

----------
ASSAYED_TARGET: UniProt P35557
Sequence (whole entry): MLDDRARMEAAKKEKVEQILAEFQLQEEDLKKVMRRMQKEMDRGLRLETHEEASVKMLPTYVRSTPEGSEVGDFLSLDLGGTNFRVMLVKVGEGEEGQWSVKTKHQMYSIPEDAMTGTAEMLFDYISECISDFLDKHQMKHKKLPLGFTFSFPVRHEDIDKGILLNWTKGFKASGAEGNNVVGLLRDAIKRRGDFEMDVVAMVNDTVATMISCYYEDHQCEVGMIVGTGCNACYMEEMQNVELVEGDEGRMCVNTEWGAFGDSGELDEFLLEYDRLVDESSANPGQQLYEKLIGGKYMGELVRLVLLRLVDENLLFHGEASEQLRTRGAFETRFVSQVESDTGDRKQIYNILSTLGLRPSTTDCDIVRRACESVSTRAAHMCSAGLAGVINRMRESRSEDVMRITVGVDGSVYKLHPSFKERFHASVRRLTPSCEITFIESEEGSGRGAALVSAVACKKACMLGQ
MEASUREMENT_PROTOCOL: Activation of recombinant human glucokinase assessed as conversion of D-glucose to D-glucose-6-phosphate in presence of 2.5 mM glucose by G6PDH coupled spectrophotometric assay relative to control
QUANTITY: %max (%)

- COMPOUND: "CN1C(=O)CCC1c1cc2[nH]c(-c3ccc(C(F)(F)F)cn3)cc2cc1Oc1ccc(C(=O)O)cc1 (configuration not stated)"
  QUANTITY: "%max"
  MEASURED_NUMBER: 683
- COMPOUND: "CN1C(=O)CCC1c1cc2[nH]c(-c3cnccn3)cc2cc1Oc1ccc(S(C)(=O)=O)nc1 (stereo in doubt; 3-en)"
  QUANTITY: "%max"
  MEASURED_NUMBER: 577
- COMPOUND: "CN1C(=O)CCC1c1cc2[nH]c(-c3ccc(C(C)(C)O)cn3)cc2cc1Oc1ccc(S(C)(=O)=O)nc1 (stereo in doubt; 4-en)"
  QUANTITY: "%max"
  MEASURED_NUMBER: 581
- COMPOUND: "CN1C(=O)CCC1c1cc2[nH]c(-c3cnccn3)cc2cc1Oc1ccc(S(C)(=O)=O)nc1 (stereo in doubt; 3)"
  QUANTITY: "%max"
  MEASURED_NUMBER: 713
- COMPOUND: "CN1C(=O)CCC1c1cc2[nH]c(-c3ccccn3)cc2cc1Oc1ccc(S(C)(=O)=O)nc1 (single isomer, unassigned; ent-1)"
  QUANTITY: "%max"
  MEASURED_NUMBER: 784
- COMPOUND: "COC(=O)c1ccc(-c2cc3cc(Oc4ccc(S(C)(=O)=O)nc4)c(C4CCC(=O)N4C)cc3[nH]2)nc1 (racemic)"
  QUANTITY: "%max"
  MEASURED_NUMBER: 739
- COMPOUND: "CCS(=O)(=O)c1ccc(Oc2cc3cc(-c4ccc(C(F)(F)F)cn4)[nH]c3cc2C2CCC(=O)N2C)cc1 (configuration not stated)"
  QUANTITY: "%max"
  MEASURED_NUMBER: 602
